system.tested: Alpha-1A adrenergic receptor (Rattus norvegicus, UniProt P43140)
Sequence (P43140 whole entry): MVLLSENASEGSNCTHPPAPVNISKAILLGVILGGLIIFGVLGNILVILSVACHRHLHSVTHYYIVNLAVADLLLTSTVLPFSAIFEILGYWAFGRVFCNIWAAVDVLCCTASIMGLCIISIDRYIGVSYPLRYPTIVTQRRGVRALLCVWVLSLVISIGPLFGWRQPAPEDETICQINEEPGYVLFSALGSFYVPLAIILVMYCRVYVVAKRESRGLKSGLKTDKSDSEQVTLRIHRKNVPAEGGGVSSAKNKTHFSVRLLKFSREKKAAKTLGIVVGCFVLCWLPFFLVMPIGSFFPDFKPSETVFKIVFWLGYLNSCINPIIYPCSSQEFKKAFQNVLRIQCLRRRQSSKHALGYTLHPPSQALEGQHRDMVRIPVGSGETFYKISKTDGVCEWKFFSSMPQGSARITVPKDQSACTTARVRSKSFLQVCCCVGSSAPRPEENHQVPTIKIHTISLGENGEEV
test: Displacement of [3H]-prazosin from rat whole cortex membrane homogenate alpha 1 adrenergic receptor
Assay type: cell membranes
measured.quantity: Ki
Reply with a number, then the unit it belongs to.

I looked up CCN(CC)C(=O)[C@@H]1C=C2c3cccc4c3c(c(Br)n4C)CC2N(C)C1 (stereo partly specified) and its Ki for Alpha-1A adrenergic receptor (Rattus norvegicus, UniProt P43140) was 34 nM

---

pKi: −log10 of the molar value.
This document collects pKi values reported for 5-hydroxytryptamine receptor 2C (Homo sapiens).

structure.smiles.string: CN(C)[C@@H]1CCc2[nH]c3ccc(NC(=O)c4ccc(F)cc4)cc3c2C1
pKi: < 6.30

Provide pKi for all items below, preserving their order.
1. CC(=O)Nc1ccc2[nH]cc(C3CCN(C)CC3)c2n1
2. CN1CCC(C(=O)c2cccc(NC(=O)c3c(F)cc(F)cc3F)n2)CC1
3. Cc1[nH]c2ccc(NC(=O)c3ccc(F)cc3)cc2c1CCN(C)C

1: < 6.62; 2: < 6.23; 3: < 6.59

Per the records, this molecule ( CCC(=O)Nc1ccc2[nH]cc(C3CCN(C)CC3)c2n1 ) has pKi equal to < 6.52

---

system.tested: 5-hydroxytryptamine receptor 1A (Homo sapiens, UniProt P08908)
Sequence (P08908 whole entry): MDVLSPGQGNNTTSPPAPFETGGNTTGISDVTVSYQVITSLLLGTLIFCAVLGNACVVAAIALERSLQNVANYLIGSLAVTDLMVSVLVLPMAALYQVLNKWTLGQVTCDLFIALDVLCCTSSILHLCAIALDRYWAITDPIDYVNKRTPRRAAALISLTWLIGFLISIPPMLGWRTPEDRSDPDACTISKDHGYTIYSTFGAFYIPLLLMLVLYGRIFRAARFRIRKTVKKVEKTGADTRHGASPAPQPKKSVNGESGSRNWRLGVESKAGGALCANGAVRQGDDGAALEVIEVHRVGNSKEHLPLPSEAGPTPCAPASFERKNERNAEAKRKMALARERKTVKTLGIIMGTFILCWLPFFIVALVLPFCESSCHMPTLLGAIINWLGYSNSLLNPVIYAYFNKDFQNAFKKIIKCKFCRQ
measured.quantity: pIC50
One number for each entry, as −log10 of the molar value.

Consider CCCN(CCC)C1CCc2ccc3[nH]cc(C=O)c3c2C1 (stereo unspecified) . Its measured pIC50 is 8.92

---

system.tested: 5-hydroxytryptamine receptor 1A (Rattus norvegicus)
Sequence (P19327 whole entry): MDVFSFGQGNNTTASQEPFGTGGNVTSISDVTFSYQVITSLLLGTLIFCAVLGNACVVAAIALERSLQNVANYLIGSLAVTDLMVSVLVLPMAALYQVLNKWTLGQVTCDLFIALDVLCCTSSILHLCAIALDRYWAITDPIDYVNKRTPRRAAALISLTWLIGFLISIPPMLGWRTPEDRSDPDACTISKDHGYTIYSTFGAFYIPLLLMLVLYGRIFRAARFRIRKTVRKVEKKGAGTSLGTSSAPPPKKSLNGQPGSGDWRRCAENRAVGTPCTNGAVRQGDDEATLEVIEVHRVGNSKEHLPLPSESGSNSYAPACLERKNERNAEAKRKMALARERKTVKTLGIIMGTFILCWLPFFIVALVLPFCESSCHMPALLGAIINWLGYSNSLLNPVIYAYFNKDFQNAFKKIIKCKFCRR
test: Displacement of [3H]-8-OH-DPAT from Sprague-Dawley rat hippocampal membrane 5HT1A receptor incubated for 10 mins by liquid scintillation analysis
Assay type: cell membranes, Hippocampus
measured.quantity: Ki (nM)
Give bare numbers, in nM.

Reported Ki for Cc1ccc2c(c1O)-c1cccc3c1C(C2)N(C)CC3 (stereo unspecified) was 0.45

---

system.tested: D(2) dopamine receptor (Rattus norvegicus, UniProt P61169)
Sequence (P61169 whole entry): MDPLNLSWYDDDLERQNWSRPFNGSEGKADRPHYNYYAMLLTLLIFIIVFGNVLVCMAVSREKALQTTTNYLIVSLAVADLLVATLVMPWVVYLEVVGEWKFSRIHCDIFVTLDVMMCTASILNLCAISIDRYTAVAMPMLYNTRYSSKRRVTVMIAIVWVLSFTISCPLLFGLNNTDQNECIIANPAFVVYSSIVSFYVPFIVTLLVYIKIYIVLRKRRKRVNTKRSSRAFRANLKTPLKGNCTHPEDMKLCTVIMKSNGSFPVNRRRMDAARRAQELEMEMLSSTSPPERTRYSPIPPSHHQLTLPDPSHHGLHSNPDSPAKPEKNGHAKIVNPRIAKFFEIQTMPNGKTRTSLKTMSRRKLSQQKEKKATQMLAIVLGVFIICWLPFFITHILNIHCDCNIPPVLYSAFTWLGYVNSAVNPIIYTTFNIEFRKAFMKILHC
test: Displacement of [3H]-halopridol from rat striatum D2 receptors
measured.quantity: pKi
Give bare numbers, as −log10 of the molar value.

Entry under test: O=C(c1ccc(F)cc1)C1CCN(CCn2c(=S)[nH]c3ccccc3c2=O)CC1 . Its pKi was 7.21

---

system.tested: 5-hydroxytryptamine receptor 2A (Rattus norvegicus)
Sequence (P14842 whole entry): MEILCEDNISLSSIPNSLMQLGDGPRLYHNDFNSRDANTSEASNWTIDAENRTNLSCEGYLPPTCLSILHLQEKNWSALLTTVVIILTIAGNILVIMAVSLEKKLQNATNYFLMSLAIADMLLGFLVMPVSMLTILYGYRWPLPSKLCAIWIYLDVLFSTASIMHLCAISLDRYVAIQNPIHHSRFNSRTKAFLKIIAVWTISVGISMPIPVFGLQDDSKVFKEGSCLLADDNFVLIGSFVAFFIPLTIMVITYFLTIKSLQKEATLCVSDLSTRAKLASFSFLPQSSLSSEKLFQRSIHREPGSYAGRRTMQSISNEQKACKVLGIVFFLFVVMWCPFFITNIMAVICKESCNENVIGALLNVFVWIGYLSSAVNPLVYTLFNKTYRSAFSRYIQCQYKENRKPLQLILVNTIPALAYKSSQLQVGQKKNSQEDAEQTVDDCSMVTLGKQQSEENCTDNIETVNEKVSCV
test: Displacement of [3H]-spiperone from rat frontal cortex homogenate 5-HT2A receptor
Format: tissue-based
measured.quantity: Ki (nM)
One number for each entry, in nM.

Note to self: Ki recorded for Cc1nc2n(c(=O)c1CCN1CCC(C(=O)c3ccc(F)cc3)CC1)CCS2 was 2.3

---

system.tested: 5-hydroxytryptamine receptor 1D (Homo sapiens, UniProt P28221)
Sequence (P28221 whole entry): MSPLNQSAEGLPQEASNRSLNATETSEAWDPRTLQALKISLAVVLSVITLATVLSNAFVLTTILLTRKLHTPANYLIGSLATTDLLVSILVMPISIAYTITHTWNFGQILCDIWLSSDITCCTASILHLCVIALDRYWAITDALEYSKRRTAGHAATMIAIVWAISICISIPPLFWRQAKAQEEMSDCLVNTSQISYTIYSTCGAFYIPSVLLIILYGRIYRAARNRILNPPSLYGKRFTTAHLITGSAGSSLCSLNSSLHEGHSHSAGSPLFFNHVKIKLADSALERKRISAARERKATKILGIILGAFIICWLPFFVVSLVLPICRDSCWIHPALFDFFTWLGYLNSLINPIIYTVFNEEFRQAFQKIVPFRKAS
test: Binding affinity to human 5-HT1D receptor expressed in CHO cells assessed as inhibition constant
Assay type: cell-based
measured.quantity: Ki (nM)
Numbers only, in nM.

# Ki of O=C(NCCN1CCN(c2cccc3c2OCCO3)CC1)c1ccc(F)cc1 = 25

---

Assignment: determine reported Ki for the given molecules.
system.tested: 5-hydroxytryptamine receptor 1D (Homo sapiens)
test: Binding affinity to 5-HT1D (unknown origin) assessed as inhibition constant

Answered cases to consult:
structure.smiles.string: CCC(=O)Nc1ccc2[nH]cc(C3CCN(C)CC3)c2n1
result: > 300 nM
//
structure.smiles.string: CN1CCC(C(=O)c2cccc(NC(=O)c3c(F)cc(F)cc3F)n2)CC1
result: > 592 nM
//
structure.smiles.string: CC(=O)Nc1ccc2[nH]cc(C3CCN(C)CC3)c2n1
result: > 240 nM
//
structure.smiles.string: Cc1[nH]c2ccc(NC(=O)c3ccc(F)cc3)cc2c1CCN(C)C
result: > 260 nM

Record CN(C)[C@@H]1CCc2[nH]c3ccc(NC(=O)c4ccc(F)cc4)cc3c2C1 , field Ki: > 500 nM

---

system.tested: D(2) dopamine receptor (Rattus norvegicus, UniProt P61169)
test: Displacement of [3H]-spiperone from rat striatum D2 receptor
measured.quantity: pIC50
Answers are plain numbers, as −log10 of the molar value.

# compound CN1CN(c2ccccc2)C2(CCN(CCCC(=O)c3ccc(F)cc3)CC2)C1=O ; its pIC50 = 9.64

---

For each of the compounds below, state its pKi.
system.tested: 5-hydroxytryptamine receptor 7 (Homo sapiens, UniProt P34969)
Sequence (P34969 whole entry): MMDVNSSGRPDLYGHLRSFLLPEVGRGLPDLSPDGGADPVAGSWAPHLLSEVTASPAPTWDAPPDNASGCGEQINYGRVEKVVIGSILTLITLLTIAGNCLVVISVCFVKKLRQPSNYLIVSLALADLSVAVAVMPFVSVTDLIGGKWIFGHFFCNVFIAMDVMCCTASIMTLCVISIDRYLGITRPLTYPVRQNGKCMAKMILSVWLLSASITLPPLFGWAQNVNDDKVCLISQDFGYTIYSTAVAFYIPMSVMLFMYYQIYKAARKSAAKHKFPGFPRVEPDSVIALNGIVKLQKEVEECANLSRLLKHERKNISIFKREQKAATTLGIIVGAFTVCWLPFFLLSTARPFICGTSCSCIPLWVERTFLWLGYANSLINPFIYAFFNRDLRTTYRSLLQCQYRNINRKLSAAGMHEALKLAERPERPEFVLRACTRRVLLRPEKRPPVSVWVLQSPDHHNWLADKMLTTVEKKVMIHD
test: Binding affinity to human recombinant 5-HT7 receptor expressed in CHO cells assessed as inhibition constant
Assay type: cell-based
Numbers only, as −log10 of the molar value.

structure.smiles.string: O=S(=O)(c1ccccc1F)N1CCC[C@@H]1CCCN1CCN(c2ccccn2)CC1
system.tested: 5-hydroxytryptamine receptor 7 (Homo sapiens, UniProt P34969)
pKi: 9.77

For every item in the list below, what is its measured pKi?
1. CC1CCN(CCC[C@H]2CCCN2S(=O)(=O)c2ccccc2F)CC1
2. COc1ccccc1N1CCN(CCC[C@H]2CCCN2S(=O)(=O)c2ccc(F)cc2)CC1
3. O=S(=O)(c1ccccc1F)N1CCC[C@@H]1CCCN1CCN(c2ccc(Cl)cc2)CC1

8.12
8.59
9.66

---

system.tested: 5-hydroxytryptamine receptor 2B (Homo sapiens)
Sequence (P41595 whole entry): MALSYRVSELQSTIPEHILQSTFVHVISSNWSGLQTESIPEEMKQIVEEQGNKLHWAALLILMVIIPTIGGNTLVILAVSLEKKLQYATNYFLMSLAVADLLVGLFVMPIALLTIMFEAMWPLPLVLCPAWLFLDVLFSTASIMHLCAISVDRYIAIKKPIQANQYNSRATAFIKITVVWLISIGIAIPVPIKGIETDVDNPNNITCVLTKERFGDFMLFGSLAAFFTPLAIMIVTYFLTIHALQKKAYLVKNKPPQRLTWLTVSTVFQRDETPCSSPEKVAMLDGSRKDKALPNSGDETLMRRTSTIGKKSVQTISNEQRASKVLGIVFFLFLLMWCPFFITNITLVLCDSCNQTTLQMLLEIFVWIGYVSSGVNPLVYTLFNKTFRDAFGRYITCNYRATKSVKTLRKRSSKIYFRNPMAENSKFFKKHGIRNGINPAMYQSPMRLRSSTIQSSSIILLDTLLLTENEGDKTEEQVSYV
Please respond with reported Ki for every item in the list.

structure.smiles.string: Cc1[nH]c2ccc(NC(=O)c3ccc(F)cc3)cc2c1CCN(C)C
system.tested: 5-hydroxytryptamine receptor 2B (Homo sapiens)
Ki: > 260 nM
//
structure.smiles.string: CNC(=O)c1ccc2c(c1)CCO[C@H]2CCN1CCN(c2ccc(C(N)=O)cc2)CC1
system.tested: 5-hydroxytryptamine receptor 2B (Homo sapiens)
Ki: > 18000 nM

Quick one: give me Ki for each item below, same order please.
1. CCC(=O)Nc1ccc2[nH]cc(C3CCN(C)CC3)c2n1
2. CC(=O)Nc1ccc2[nH]cc(C3CCN(C)CC3)c2n1
3. CC(C)c1cc(-c2ccc(F)c3ccccc23)nc(N)n1

1: > 300 nM; 2: > 240 nM; 3: 0.3 nM

Each of the following entries comes with a recorded value; kindly state Ki for each.
1. CN1CCC(C(=O)c2cccc(NC(=O)c3c(F)cc(F)cc3F)n2)CC1
2. CN(C)[C@@H]1CCc2[nH]c3ccc(NC(=O)c4ccc(F)cc4)cc3c2C1

> 593 nM
> 500 nM

---

system.tested: 5-hydroxytryptamine receptor 2C (Homo sapiens)
Sequence (P28335 whole entry): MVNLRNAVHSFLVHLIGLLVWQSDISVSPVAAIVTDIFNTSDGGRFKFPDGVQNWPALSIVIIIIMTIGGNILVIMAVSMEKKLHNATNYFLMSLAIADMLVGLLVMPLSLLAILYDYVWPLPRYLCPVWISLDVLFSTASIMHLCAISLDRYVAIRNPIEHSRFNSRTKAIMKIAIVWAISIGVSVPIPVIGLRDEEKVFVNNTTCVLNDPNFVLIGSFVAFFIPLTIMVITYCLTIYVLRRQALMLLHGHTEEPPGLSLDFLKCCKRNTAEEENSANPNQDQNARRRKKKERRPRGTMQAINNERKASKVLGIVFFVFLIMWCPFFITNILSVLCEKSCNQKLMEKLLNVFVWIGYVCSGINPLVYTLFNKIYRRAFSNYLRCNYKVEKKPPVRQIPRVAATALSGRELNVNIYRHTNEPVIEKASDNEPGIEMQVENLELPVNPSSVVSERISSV
test: Binding affinity to human 5-HT2C assessed as inhibition constant
measured.quantity: pKi
One number for each entry, as −log10 of the molar value.

structure.smiles.string: COc1c(OCCF)cccc1[C@H](O)C1CCN(CCc2ccc(F)cc2)CC1
measured.quantity: pKi
result.number: 7.15

Entry COc1cc(CCNCc2ccccc2O[11CH3])c(OC)cc1Br ; pKi = 8.77

---

system.tested: Alpha-1A adrenergic receptor (Rattus norvegicus)
Sequence (P43140 whole entry): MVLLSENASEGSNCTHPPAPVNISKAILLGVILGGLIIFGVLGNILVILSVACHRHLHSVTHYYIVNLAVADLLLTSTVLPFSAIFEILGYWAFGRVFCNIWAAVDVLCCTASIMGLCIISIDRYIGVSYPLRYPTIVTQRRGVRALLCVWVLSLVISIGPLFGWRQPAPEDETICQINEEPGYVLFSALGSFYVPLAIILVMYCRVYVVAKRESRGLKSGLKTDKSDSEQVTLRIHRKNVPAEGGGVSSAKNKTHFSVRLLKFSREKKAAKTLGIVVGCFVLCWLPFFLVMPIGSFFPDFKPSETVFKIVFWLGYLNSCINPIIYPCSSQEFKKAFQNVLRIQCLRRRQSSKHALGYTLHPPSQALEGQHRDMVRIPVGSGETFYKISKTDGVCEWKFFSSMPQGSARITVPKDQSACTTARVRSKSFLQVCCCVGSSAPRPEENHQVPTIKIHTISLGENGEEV
measured.quantity: IC50 (µM)
Give bare numbers, in µM.

Record CN1CN(c2ccccc2)C2(CCN(CCCC(=O)c3ccc(F)cc3)CC2)C1=O [MESPIPERONE] , field IC50: 0.0101
